- Read-out: Human Leukocyte Antigen - DR isotype (HLADR), HLA-DRA (gene 3122)
- assay.details: BSK_3C_HLADR: BioMAP Diversity Plus: 3C Assay for Human Leukocyte Antigen - DR isotype (HLADR) Biomarker Activity (AID 2283019)
- condition.parameters: primary human endothelial cells (HUVEC); actives raise or lower the signal
Activity calls are given as the source filed them. How the source made its calls: active means hit-call score of the fitted dose curve at least 0.9, where 1 is the maximum; inactive means score below 0.9.
Give your call using only these classes: Yes = active, No = inactive

Look over these answered cases.
smiles.repr	class.label
O=C(O)C(F)(F)C(F)(F)C(F)(F)C(F)(F)F	No
O=C(O)C(F)(F)C(F)(F)C(F)F	No

Prompt: Returns: the outcome recorded for `OCC(F)(F)C(F)(F)C(F)(F)C(F)F` in this assay.
Response: No

Prompt: Returns: the outcome recorded for `O=C(O)C(F)(F)C(F)(F)OC(F)(F)F` in this assay.
Response: No

Prompt: Returns: the outcome recorded for `O=S(=O)(OCCOC(F)(F)F)C(F)(F)F` in this assay.
Response: No

Prompt: Returns: the outcome recorded for `C#C[C@]1(O)CC[C@H]2[C@@H]3CCc4cc(OC)ccc4[C@H]3CC[C@@]21C` in this assay.
Response: Yes

----------
- assay.details: ATG_M_19_CIS: Attagene CIS-FACTORIAL HepG2 Assay for M19 Transcription Factor (Internal Marker) (AID 2282939)
- condition.parameters: HepG2 Attagene CIS-FACTORIAL M19 internal marker reporter; actives raise or lower the signal
Activity calls are given as the source filed them. How the source made its calls: active means hit-call score of the fitted dose curve at least 0.9, where 1 is the maximum; inactive means score below 0.9.

smiles.repr	outcome
CCCCNc1ccccc1	inactive
OCC(F)(F)C(F)(F)C(F)(F)C(F)(F)C(F)(F)C(F)(F)F	inactive
N=C(N)C(F)(F)C(F)(F)C(F)(F)C(F)(F)C(F)(F)C(F)(F)C(F)(F)F	inactive
FC(F)(F)C(F)(F)C(F)(F)C(F)(F)C(F)(F)C(F)(F)CCS	inactive

----------
- Read-out: CD69, CD69 (gene 969)
- assay.details: BSK_SAg_CD69: BioMAP Diversity Plus: SAg Assay for CD69 Biomarker Activity (AID 2283089)
- condition.parameters: primary human HUVEC with PBMC; actives raise or lower the signal
Calls of active or inactive are those of the source. The calls were made as follows: active = hit-call score of the fitted dose curve at least 0.9, where 1 is the maximum; inactive = score below 0.9.
Give your call using only these classes: yes (1) (active), no (0) (inactive)

Look over these answered cases.
compound	class.label
O=S(=O)(OCCOC(F)(F)F)C(F)(F)F	no (0)
O=C(O)C(F)(OC(F)(F)C(F)(OC(F)(F)C(F)(OC(F)(F)C(F)(F)C(F)(F)F)C(F)(F)F)C(F)(F)F)C(F)(F)F (stereo not given)	no (0)
C#C[C@]1(O)CC[C@H]2[C@@H]3CCc4cc(OC)ccc4[C@H]3CC[C@@]21C	yes (1)
C=CC(F)(F)C(F)(F)C(F)(F)C(F)(F)C(F)(F)C(F)(F)C(F)(F)C(F)(F)F	no (0)

Now look at this one.
Prompt: Returns: the outcome recorded for `C=CC/C=C/C/C=C/C/C=C/C` in this assay.
Response: no (0)

----------
- assay.details: BSK_hDFCGF_Proliferation: Cell Proliferation Assessment in the BioMAP Diversity Plus: hDFCGF Assay (AID 2283059);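 further: curves fitted for both rise and fall of signal versus DMSO baseline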
- condition.parameters: primary human foreskin fibroblasts
The source made the active and inactive calls. How the source made its calls: active means hit-call score of the fitted dose curve at least 0.9, where 1 is the maximum; inactive means score below 0.9.
measure: outcome

Guide cases for outcome, answers given:
compound	measure	meas.value
CCCCCCCOC(=O)c1ccccc1C(=O)OCCCCCCC	outcome	inactive
FC(F)(F)C(F)(F)C(F)(F)C(F)(F)C(F)(F)C(F)(F)C(F)(F)C(F)(F)CCS	outcome	inactive
CC(CCl)OP(=O)(OC(C)CCl)OC(C)CCl (stereo unspecified)	outcome	inactive
O=P(O)(O)OCCC(F)(F)C(F)(F)C(F)(F)C(F)(F)C(F)(F)C(F)(F)F	outcome	inactive
OCC(F)(F)C(F)(F)C(F)(F)C(F)F	outcome	inactive

Okay, now this compound:
Looking up `O=C(O)C(F)(F)C(F)(F)OC(F)(F)F` , I see its outcome listed as inactive

Provenance of the data: PubChem BioAssay (EPA / NIEHS)
